The reported numbers originate from the supplement of paper PMC10338343.

Each entry below carries its recorded pre-steady-state target cleavage rate.
Test system: EfPiwi piRISC loaded with piRNA #1 (26 nt)
assay: pre-steady-state target cleavage rate (min^-1); auxiliary factor: 500 nM Ephydatia muelleri Gtsf1; guide: piRNA #1 5'p-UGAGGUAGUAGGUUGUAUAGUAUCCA; MIWI and MILI are mouse PIWI proteins and EfPiwi is from a freshwater sponge; tags in brackets are library labels; higher = faster piRNA-guided slicing of the target
assay_metric: pre-steady-state target cleavage rate

query_sequence=GGAGUGGAUUCUAUACAUCCUACUACCUCA assay_metric="pre-steady-state target cleavage rate" modifier== number=0.00479
query_sequence=GGAGACCUCACUAUACAACCUACUACCUCA assay_metric="pre-steady-state target cleavage rate" modifier== number=0.0184
query_sequence=GGAGUGGAUACUAUACACCUACUACCUCA assay_metric="pre-steady-state target cleavage rate" modifier== number=0.157
query_sequence=GGAGACGAUACUAUACAACGUUCUACCUCA assay_metric="pre-steady-state target cleavage rate" modifier== number=0.00329
query_sequence=GGAGACCAUACUAUACAUCCUACUACGUCA assay_metric="pre-steady-state target cleavage rate" modifier== number=0.00585
query_sequence=GGAGAGGAUACUAUACACACCUACUACCUCA assay_metric="pre-steady-state target cleavage rate" modifier== number=0.00541
query_sequence=GGAGACCAUACUAUACUACCUACUACGUCA assay_metric="pre-steady-state target cleavage rate" modifier== number=0.0039
query_sequence=GGAGUGGAUACUAUACAACGUACUACCUCA assay_metric="pre-steady-state target cleavage rate" modifier== number=0.00682
query_sequence=GGAGACCUAUGAUAACAAGGAACUACCUCA assay_metric="pre-steady-state target cleavage rate" modifier=< number=0.0001
query_sequence=GGAGUGGAUACUAUACAACCUACUAGCUCA assay_metric="pre-steady-state target cleavage rate" modifier== number=0.00429
query_sequence=GGAGUGGAUCCUAUACAACCUACUACCUCA assay_metric="pre-steady-state target cleavage rate" modifier== number=0.111
query_sequence=GGAGACCAAACUAUACAACCUACUUCCUCA assay_metric="pre-steady-state target cleavage rate" modifier== number=0.00317
query_sequence=GGAGUGGAUACUAUACAACCUACUACCGUCA assay_metric="pre-steady-state target cleavage rate" modifier== number=0.00748
query_sequence=GGAGAGGAUACAUUACAACCUACUACCUCA assay_metric="pre-steady-state target cleavage rate" modifier== number=0.007
query_sequence=GGAGAGCAUACUAUACAACCUACUACCUCA assay_metric="pre-steady-state target cleavage rate" modifier== number=0.0285
query_sequence=GGAGAGGAUACUAUAAAACCUACUACCUCA assay_metric="pre-steady-state target cleavage rate" modifier== number=0.00425
query_sequence=GGAGACCAUACUAUACAACCUACUACCACA assay_metric="pre-steady-state target cleavage rate" modifier== number=0.00574
query_sequence=GGAGUGGUUACUAUACAACGUACUACCUCA assay_metric="pre-steady-state target cleavage rate" modifier== number=0.00485
query_sequence=GGAGAGGAUAAUAUACAACCUACUACCUCA assay_metric="pre-steady-state target cleavage rate" modifier== number=0.00772
query_sequence=GGAGUGGAAACUAUACAACCAACUACCUCA assay_metric="pre-steady-state target cleavage rate" modifier== number=0.0049
query_sequence="GGAGACCUAUGAUAUGUUGGUACUACCUCU [g2:g10:cont:t1U]" assay_metric="pre-steady-state target cleavage rate" modifier=< number=0.0001
query_sequence=GGAGACCUAUGAAGUACAACCUACUACCUCA assay_metric="pre-steady-state target cleavage rate" modifier== number=0.00479
query_sequence=GGAGACGCUACUAUACAACCUACUACCUCA assay_metric="pre-steady-state target cleavage rate" modifier== number=0.163
query_sequence=GGAGAGGAUAGUUUACAACCUACUACCUCA assay_metric="pre-steady-state target cleavage rate" modifier== number=0.0061
query_sequence=GGAGACGAAACUAUACAACCUAGUACCUCA assay_metric="pre-steady-state target cleavage rate" modifier== number=0.0035
query_sequence=GGAGAGGAUAUAUACAACCUACUACCUCA assay_metric="pre-steady-state target cleavage rate" modifier== number=0.00764
query_sequence=GGAGACCUUACUAUACAACCGACUACCUCA assay_metric="pre-steady-state target cleavage rate" modifier== number=0.00553
query_sequence=GGAGAGAAUACUAUACAACCUACUACCUCA assay_metric="pre-steady-state target cleavage rate" modifier== number=0.0106
query_sequence=GGAGAGGUUACAAUACAACCUACUACCUCA assay_metric="pre-steady-state target cleavage rate" modifier== number=0.00504
query_sequence="GGAGACCAUACUAUACAACCUACUACCUCC [g2:g23:cont:t1C]" assay_metric="pre-steady-state target cleavage rate" modifier== number=0.0109
query_sequence=GGAGACGAUACAAUACAACCAACUACCUCA assay_metric="pre-steady-state target cleavage rate" modifier== number=0.0037
query_sequence=GGAGUGGAUACUAUUCAACCUACUACCUCA assay_metric="pre-steady-state target cleavage rate" modifier== number=0.0119
query_sequence=GGAGAGCAUACUAUUCAACCUACUACCUCA assay_metric="pre-steady-state target cleavage rate" modifier== number=0.00555
query_sequence=GGAGACCAUACUAUACAACCUACCACCUCA assay_metric="pre-steady-state target cleavage rate" modifier== number=0.00474
query_sequence=GGAGACGAUACUAUACAACGCUACUACCUCA assay_metric="pre-steady-state target cleavage rate" modifier== number=0.00969
query_sequence=GGAGACCAUACAAUACAACCUACUACCUCA assay_metric="pre-steady-state target cleavage rate" modifier== number=0.0108
query_sequence=GGAGAGGAUACUAUACAACCAACUACGUCA assay_metric="pre-steady-state target cleavage rate" modifier== number=0.00338
query_sequence=GGAGAGGAAACUAUACAUCCUACUACCUCA assay_metric="pre-steady-state target cleavage rate" modifier== number=0.00711
query_sequence=GGAGACGAUACUAUAGAACCUACUACGUCA assay_metric="pre-steady-state target cleavage rate" modifier== number=0.002
query_sequence=GGAGACGAUACAAUACAACCUACUACGUCA assay_metric="pre-steady-state target cleavage rate" modifier== number=0.00361
query_sequence=GGAGACCAUACUAUACAACCUACUAGCACA assay_metric="pre-steady-state target cleavage rate" modifier== number=0.00447
query_sequence=GGAGACCUAAGUAUACAACCUACUACCUCA assay_metric="pre-steady-state target cleavage rate" modifier== number=0.00697
query_sequence=GGAGACCAUACUAUACAACCUACUAUCCUCA assay_metric="pre-steady-state target cleavage rate" modifier== number=0.00375
query_sequence=GGAGACGAUACUAUACAACCUACUACGCUCA assay_metric="pre-steady-state target cleavage rate" modifier== number=0.00415
query_sequence=GGAGUGGAUACUAUACAACCUACUACCUUA assay_metric="pre-steady-state target cleavage rate" modifier== number=0.276
query_sequence=GGAGACGAUACUAUACAACCUACUACCUCCA assay_metric="pre-steady-state target cleavage rate" modifier== number=0.02
query_sequence=GGAGAGGAUACUAUACAACCUACUACAUCA assay_metric="pre-steady-state target cleavage rate" modifier== number=0.00573
query_sequence=GGAGACCUAUGAUAUGAACCUACUACCCCA assay_metric="pre-steady-state target cleavage rate" modifier=< number=0.0001
query_sequence=GGAGACGAAACUAUACAACCUACUUCCUCA assay_metric="pre-steady-state target cleavage rate" modifier== number=0.00318
query_sequence=GGAGUGGAUACUAUACAACCUACCACCUCA assay_metric="pre-steady-state target cleavage rate" modifier== number=0.00271
query_sequence=GGAGACCAUACUAUACAACCUACUACACUCA assay_metric="pre-steady-state target cleavage rate" modifier== number=0.00487
query_sequence=GGAGUGGAUACUAAACAACCUUCUACCUCA assay_metric="pre-steady-state target cleavage rate" modifier== number=0.00385
query_sequence=GGAGACCUUACUAUACAACCUACUGCCUCA assay_metric="pre-steady-state target cleavage rate" modifier== number=0.00661
query_sequence=GGAGACGAUUCAAUACAACCUACUACCUCA assay_metric="pre-steady-state target cleavage rate" modifier== number=0.0447
